Values were extracted from PubChem BioAssay (NCATS).

Biological target: Ubiquitin carboxyl-terminal hydrolase 1 (Homo sapiens)
Experiment: Inhibitors of USP1/UAF1: Pilot qHTS (AID 504865); also: nearly all actives have a fitted effect of over 35% in size; also: potency is read from the fitted curve at half-maximal effect
Details: purified USP1/UAF1, Ub-rhodamine cleavage fluorescence; series mostly up to 54.9 µM
Inconclusive results are not listed. Activity calls are given as the source filed them. Calls follow the shape of the dose curve; as a rule, active = well fitted inhibition curve with a large enough effect; inconclusive = small, poorly fitted or top-dose-only effect; inactive = flat fitted curve, though single readings scatter.
assay readout: Potency

Example results:
smiles input | test system | Potency
CNc1cc(-c2ccccc2C(F)(F)F)ncn1 | Ubiquitin carboxyl-terminal hydrolase 1 (Homo sapiens) | inactive
Cc1cnc(CNc2ncnc3ccc(-c4ccoc4)cc23)cn1 | Ubiquitin carboxyl-terminal hydrolase 1 (Homo sapiens) | inactive
O=c1c(-c2ccc(F)cc2)nc2cnc(Oc3ccccc3)nc2n1Cc1cccs1 | Ubiquitin carboxyl-terminal hydrolase 1 (Homo sapiens) | 3.16 µM (active)
Cc1cnc(CNc2ccnc(-c3ccccc3CN(C)C)n2)cn1 | Ubiquitin carboxyl-terminal hydrolase 1 (Homo sapiens) | inactive

INPUT: Identify measured Potency associated with `CCNc1ncc2nc(-c3ccc(Cl)cc3)c(=O)n(C[C@H]3CCCO3)c2n1`
OUTPUT: inactive

INPUT: Please supply the value of reported Potency for the item `COc1ccccc1-c1nccc(NCc2cnc(C)cn2)n1`
OUTPUT: inactive

INPUT: Report measured Potency; entry is `c1ccc2c(NC3CCNCC3)nc(-c3ccoc3)nc2c1`
OUTPUT: inactive

INPUT: Check the records and state Potency for `Cc1noc(C)c1-c1cc(NC2CC2)ncn1`
OUTPUT: inactive

INPUT: Look up and report measured Potency for this entry: `CCNc1ncc2nc(-c3ccc(F)cc3)c(=O)n(CCOC)c2n1`
OUTPUT: inactive

INPUT: Please supply the value of reported Potency for the item `CCNc1ncc2nc(-c3cc(F)cc(F)c3)c(=O)n(C[C@H]3CCCO3)c2n1`
OUTPUT: inactive

INPUT: Complete the entry with Potency for `COc1ccccc1-c1nccc(NC2CCNCC2)n1`
OUTPUT: inactive

INPUT: Please list Potency recorded for the molecule `COc1cccc(-c2cncnc2-n2ccnc2)c1`
OUTPUT: inactive
